Biological target: T1, human GIP receptor (human, UniProt P48546 22-466)
T1 sequence (looked up): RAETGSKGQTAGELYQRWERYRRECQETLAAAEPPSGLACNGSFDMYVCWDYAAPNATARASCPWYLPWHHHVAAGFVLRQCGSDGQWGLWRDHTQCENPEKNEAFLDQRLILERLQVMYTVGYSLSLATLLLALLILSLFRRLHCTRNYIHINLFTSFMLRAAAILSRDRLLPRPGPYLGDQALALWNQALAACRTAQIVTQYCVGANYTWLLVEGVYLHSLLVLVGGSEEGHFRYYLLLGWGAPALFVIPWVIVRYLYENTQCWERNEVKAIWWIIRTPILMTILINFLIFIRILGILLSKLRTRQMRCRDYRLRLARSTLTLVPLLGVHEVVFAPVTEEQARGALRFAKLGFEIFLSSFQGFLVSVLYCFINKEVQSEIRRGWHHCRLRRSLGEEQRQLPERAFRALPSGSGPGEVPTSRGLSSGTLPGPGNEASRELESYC
Assay: cell-based or functional assay
Starred links: 1 amine or outer side, 2 acyl side, 3 side chain; linkers in the order of their positions; H or OH if unused. Non-standard residues stand in square brackets, D forms with d. Groups on a side chain read outwards from the residue. *: point of attachment. C20 diacid = O=C(O)CCCCCCCCCCCCCCCCCCC(=O)*; γGlu = O=C(O)[C@H](CCC(=O)[*:2])N[*:1]; Aib = CC(C)(N)C(=O)O
Checkbox rule: EC50, hGIP-R level of cAMP (HEK293 cells expressing human GIP R) lower than 9 pM = Fulfilled; EC50, hGIP-R level of cAMP (HEK293 cells expressing human GIP R) not lower than 9 pM = Not fulfilled.

INSERT INTO measurements (binder, class) VALUES
  ('YAEGTFISDYSIELDKIAAQDFIEWLLAGPSSGAPPPSK (Aib at 2; Lys 39 side chain acylated: K((19-Carboxy-nonadecanoyl)-[(Piperazine-1-yl)-acetyl]-Peg3-Peg3); C-terminal amide (-NH2)) [Compound 26]', 'Not fulfilled'),
  ('H-Y[Aib]EGTFISDYSIELDKK([Peg3-Peg3-γGlu-C20 diacid])AQKEFVEWLLAAGPSSGAPPPS-NH2 [Compound 22]', 'Fulfilled'),
  ('YAEGTFISDYSIELDKKAAQAFIEWLLAQGPSSGAPPPS (Aib at 2; Lys 17 side chain acylated: K((19-Carboxy-nonadecanoyl)-[(Piperazine-1-yl)-acetyl]-Peg3-Peg3); C-terminal amide (-NH2)) [Compound 41]', 'Not fulfilled'),
  ('H-Y[Aib]EGTFISDYSIELDKK([Peg3-Peg3-γGlu-C20 diacid])AAQDFINWLLAQGPSSGAPPPS-NH2 [Compound 39]', 'Fulfilled');
